# testSystem: HLA-A*11:01
# assayOverview: IEDB peptide-MHC binding, purified MHC/direct/fluorescence; filed as Kd, often an IC50 or EC50 that approximates it; bounds were set here for any values at or beyond the usual limits of such assays
# testSettings: source organism: Marburg virus - Musoke, Kenya, 1980
recordedMetric: Kd

In: Quick check: Kd of GEGSGARLL ?
Out: ≥ 20 µM

* * *

# testSystem: HLA-A*68:01
# assayOverview: IEDB peptide-MHC binding, purified MHC/competitive/radioactivity; filed as Kd, often an IC50 or EC50 that approximates it; bounds were set here for any values at or beyond the usual limits of such assays
# testSettings: source organism: Vaccinia virus WR
Mark each entry label 1 if its Kd sits below 2000 nM, and label 0 for all others.

Record excerpt, results attached:
>  <chainSequence>
HVDGKILFV

>  <assignedClass>
label 0

$$$$
>  <chainSequence>
STAEQLSKY

>  <assignedClass>
label 1

$$$$
>  <chainSequence>
PAGRPNYVK

>  <assignedClass>
label 0

$$$$
>  <chainSequence>
PVSDLYTSMR

>  <assignedClass>
label 1

$$$$
>  <chainSequence>
DVSLSAYIIR

>  <assignedClass>
label 1

$$$$
>  <chainSequence>
DFLKDDTLSK

>  <assignedClass>
label 0

$$$$

In: Lab log: compare recorded Kd with 2000 nM; is it strictly lower for TIDNPTKYIR ?
Out: label 1

In: What do we get for DILSIIDAK ?
Out: label 1

In: Another: CIRNASKFVY
Out: label 0

In: And for RAVKFAEESY ?
Out: label 0

In: Same lookup for LLVKMINHLK , please.
Out: label 1

In: Further, for TVENNIDFLK ?
Out: label 1

In: Record: WLYYNQDVQR
Out: label 1

In: Similarly, ILEYLYIMR ?
Out: label 1

In: Next: LIKTILASY
Out: label 0

In: VVKDDPDHY ?
Out: label 0

In: // repeat for HIIDSFNIR and report
Out: label 1

* * *

# testSystem: HLA-B*48:01
# assayOverview: IEDB peptide-MHC binding, purified MHC/direct/fluorescence; filed as Kd, often an IC50 or EC50 that approximates it; bounds were set here for any values at or beyond the usual limits of such assays
# testSettings: source organism: Brucella abortus 2308
pKd: −log10 of the molar value.
recordedMetric: pKd

In: Find the measured pKd: item YRSGVPVEK , target or system HLA-B*48:01.
Out: ≤ 4.70

* * *

# testSystem: HLA-A*29:02
# assayOverview: IEDB peptide-MHC binding, purified MHC/competitive/radioactivity; filed as Kd, often an IC50 or EC50 that approximates it; bounds were set here for any values at or beyond the usual limits of such assays
# testSettings: source organism: Mammarenavirus whitewaterense
recordedMetric: Kd (µM)
Give the value in µM but do not write µM after it.

In: Value lookup for Kd; key = ATGTDMPGGY
Out: 8.85

* * *

# testSystem: HLA-B*07:02
# assayOverview: IEDB peptide-MHC binding, purified MHC/direct/fluorescence; filed as Kd, often an IC50 or EC50 that approximates it; bounds were set here for any values at or beyond the usual limits of such assays
# testSettings: source organism: Aggregatibacter actinomycetemcomitans
pKd: −log10 of the molar value.
recordedMetric: pKd

In: Need pKd of KYDDRIQSQ , thanks.
Out: ≤ 4.70

* * *

# testSystem: HLA-A*03:01
# assayOverview: IEDB peptide-MHC binding, purified MHC/competitive/fluorescence; filed as Kd, often an IC50 or EC50 that approximates it; bounds were set here for any values at or beyond the usual limits of such assays
# testSettings: source organism: Fusobacterium vincentii ATCC 49256
recordedMetric: pKd
Just the number, please; pKd means minus log10 of the concentration in mol/L.

In: Field request: pKd | item: FSFGDYFKK
Out: 7.40

* * *

# testSystem: HLA-B*27:05
# assayOverview: IEDB peptide-MHC binding, purified MHC/direct/fluorescence; filed as Kd, often an IC50 or EC50 that approximates it; bounds were set here for any values at or beyond the usual limits of such assays
# testSettings: source organism: Influenza A virus (A/chicken/Hubei/wk/1997(H5N1))
pKd: −log10 of the molar value.
recordedMetric: pKd

In: Short answer please: pKd, HLA-B*27:05, entry NPALRMKWM
Out: ≤ 4.70

* * *

# testSystem: HLA-A*01:01
# assayOverview: IEDB peptide-MHC binding, purified MHC/competitive/radioactivity; filed as Kd, often an IC50 or EC50 that approximates it; bounds were set here for any values at or beyond the usual limits of such assays
# testSettings: source organism: Mammarenavirus guanaritoense
Below, each entry is listed alongside its reported Kd.
The reply should contain only the number, in nM.

Consider the reported Kd for these sequences:
>  <chainSequence>
FLDGVNLVA

>  <measureUnit>
nM

>  <Kd>
9.76

$$$$
>  <chainSequence>
RVGLYGLLFY

>  <measureUnit>
nM

>  <Kd>
17400

$$$$
>  <chainSequence>
HLSRTVVYSY

>  <measureUnit>
nM

>  <Kd>
1330

$$$$

In: Field request: Kd | item: HTNFESFTV
Out: 440

* * *

# testSystem: HLA-A*68:01
# assayOverview: IEDB peptide-MHC binding, purified MHC/competitive/radioactivity; filed as Kd, often an IC50 or EC50 that approximates it; bounds were set here for any values at or beyond the usual limits of such assays
# testSettings: source organism: Mammarenavirus machupoense
recordedMetric: pKd
Worth noting: pKd values are minus log10 of concentrations stated in mol/L.

In: Given the entry RTAPPSLYGR , report its measured pKd.
Out: 7.99

* * *

# testSystem: HLA-A*11:01
# assayOverview: IEDB peptide-MHC binding, purified MHC/competitive/radioactivity; filed as Kd, often an IC50 or EC50 that approximates it; bounds were set here for any values at or beyond the usual limits of such assays
# testSettings: source organism: Dengue virus 3 Singapore/8120/1995
recordedMetric: Kd (nM)
Report the value in nM with no unit label.

In: # query: Kd | item KALKINWYK | system: HLA-A*11:01
Out: 81.7

* * *

# testSystem: HLA-A*31:01
# assayOverview: IEDB peptide-MHC binding, purified MHC/competitive/fluorescence; filed as Kd, often an IC50 or EC50 that approximates it; bounds were set here for any values at or beyond the usual limits of such assays
# testSettings: source organism: Salmonella enterica subsp. enterica serovar Typhi
recordedMetric: Kd (nM)
Give just the numeric value; nM need not be written.

In: Given SVIDHIHYM , state its recorded Kd.
Out: 231

* * *

# testSystem: HLA-A*11:01
# assayOverview: IEDB peptide-MHC binding, purified MHC/competitive/radioactivity; filed as Kd, often an IC50 or EC50 that approximates it; bounds were set here for any values at or beyond the usual limits of such assays
# testSettings: source organism: Mammarenavirus brazilense
recordedMetric: Kd (µM)
Give just the number in µM; leave the unit off.

In: Data request, read-out Kd, for LNTPYCNYTK
Out: 10.8

* * *

# testSystem: HLA-B*27:05
# assayOverview: IEDB peptide-MHC binding, purified MHC/direct/fluorescence; filed as Kd, often an IC50 or EC50 that approximates it; bounds were set here for any values at or beyond the usual limits of such assays
# testSettings: source organism: Mammarenavirus juninense
recordedMetric: pKd
Value format note: pKd is -log10 of concentration (mol/L); just state the number.

In: Name the recorded pKd for RRVAHSSLY .
Out: 6.77

* * *

# testSystem: HLA-B*44:02
# assayOverview: IEDB peptide-MHC binding, purified MHC/competitive/radioactivity; filed as Kd, often an IC50 or EC50 that approximates it; bounds were set here for any values at or beyond the usual limits of such assays
# testSettings: source organism: Dengue virus 2 Jamaica/1409/1983
recordedMetric: Kd (µM)
Your answer should be a plain number; it is taken to be in µM.

In: Quick check: Kd of AEMEEALRGL ?
Out: 0.0176

* * *

# testSystem: HLA-A*02:19
# assayOverview: IEDB peptide-MHC binding, purified MHC/competitive/fluorescence; filed as Kd, often an IC50 or EC50 that approximates it; bounds were set here for any values at or beyond the usual limits of such assays
# testSettings: source organism: Pseudomonas sp. MIS38
recordedMetric: pKd
The meaning of pKd here: minus log10 of the concentration in molar units.

In: For YMLKDSAPT , what is its reported pKd?
Out: 7.94

* * *

# testSystem: HLA-B*15:01
# assayOverview: IEDB peptide-MHC binding, purified MHC/competitive/fluorescence; filed as Kd, often an IC50 or EC50 that approximates it; bounds were set here for any values at or beyond the usual limits of such assays
# testSettings: source organism: Escherichia coli str. K-12 substr. DH10B
recordedMetric: Kd

In: I am curious: what Kd value has been reported for QVIFKCVPK ?
Out: ≥ 20 µM

Values compiled from the Immune Epitope Database (IEDB).
